B1: glmS ribozyme (parent)
chain: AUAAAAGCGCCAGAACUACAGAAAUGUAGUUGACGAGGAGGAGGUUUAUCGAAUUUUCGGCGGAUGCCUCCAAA

variants of: B1; assay: self-cleavage kobs at 640 uM GlcN6P; higher = faster cleavage; RNA array; conditions: with glucosamine-6-phosphate
Variants at the floor of the assay were thinned out.
Task for the reader: assign each of the following variants its reported self-cleavage kobs at 640 uM GlcN6P.

Value lookup for self-cleavage kobs at 640 uM GlcN6P; key = C34U U65C < 1e-05 s⁻¹

Value lookup for self-cleavage kobs at 640 uM GlcN6P; key = U31C G32A A39G 0.000252 s⁻¹

Value lookup for self-cleavage kobs at 640 uM GlcN6P; key = G13A G40C C70G < 1e-05 s⁻¹

Value lookup for self-cleavage kobs at 640 uM GlcN6P; key = C10G U46G < 1e-05 s⁻¹

Value lookup for self-cleavage kobs at 640 uM GlcN6P; key = G13U G29A U31A G37C < 1e-05 s⁻¹

Value lookup for self-cleavage kobs at 640 uM GlcN6P; key = C8A U49G C68G 0.000875 s⁻¹

Value lookup for self-cleavage kobs at 640 uM GlcN6P; key = C58U U69A 6.22e-05 s⁻¹

Value lookup for self-cleavage kobs at 640 uM GlcN6P; key = G43U G63C < 1e-05 s⁻¹

Value lookup for self-cleavage kobs at 640 uM GlcN6P; key = G37A G40U U55G 6.13e-05 s⁻¹

Value lookup for self-cleavage kobs at 640 uM GlcN6P; key = C58G U65C < 1e-05 s⁻¹

Value lookup for self-cleavage kobs at 640 uM GlcN6P; key = A15G C16U C68G 8.06e-05 s⁻¹

Value lookup for self-cleavage kobs at 640 uM GlcN6P; key = G37C G43C < 1e-05 s⁻¹

Value lookup for self-cleavage kobs at 640 uM GlcN6P; key = G38C G41U G44C < 1e-05 s⁻¹

Value lookup for self-cleavage kobs at 640 uM GlcN6P; key = C11G G44U C50G G62C < 1e-05 s⁻¹

Value lookup for self-cleavage kobs at 640 uM GlcN6P; key = U47A G62U < 1e-05 s⁻¹

Value lookup for self-cleavage kobs at 640 uM GlcN6P; key = G44C U65C < 1e-05 s⁻¹

Value lookup for self-cleavage kobs at 640 uM GlcN6P; key = C61A C71U < 1e-05 s⁻¹

Value lookup for self-cleavage kobs at 640 uM GlcN6P; key = G66U U69A 8.9e-05 s⁻¹

Value lookup for self-cleavage kobs at 640 uM GlcN6P; key = G44A G63C < 1e-05 s⁻¹

Value lookup for self-cleavage kobs at 640 uM GlcN6P; key = U57G C67A U69G 4.87e-05 s⁻¹

Value lookup for self-cleavage kobs at 640 uM GlcN6P; key = U56C G62C < 1e-05 s⁻¹

Value lookup for self-cleavage kobs at 640 uM GlcN6P; key = A6U G29U G32U A42G U47A C71G < 1e-05 s⁻¹
